- measured on: hERG (KCNH2) (Homo sapiens)
- Sequence (Q12809 whole entry): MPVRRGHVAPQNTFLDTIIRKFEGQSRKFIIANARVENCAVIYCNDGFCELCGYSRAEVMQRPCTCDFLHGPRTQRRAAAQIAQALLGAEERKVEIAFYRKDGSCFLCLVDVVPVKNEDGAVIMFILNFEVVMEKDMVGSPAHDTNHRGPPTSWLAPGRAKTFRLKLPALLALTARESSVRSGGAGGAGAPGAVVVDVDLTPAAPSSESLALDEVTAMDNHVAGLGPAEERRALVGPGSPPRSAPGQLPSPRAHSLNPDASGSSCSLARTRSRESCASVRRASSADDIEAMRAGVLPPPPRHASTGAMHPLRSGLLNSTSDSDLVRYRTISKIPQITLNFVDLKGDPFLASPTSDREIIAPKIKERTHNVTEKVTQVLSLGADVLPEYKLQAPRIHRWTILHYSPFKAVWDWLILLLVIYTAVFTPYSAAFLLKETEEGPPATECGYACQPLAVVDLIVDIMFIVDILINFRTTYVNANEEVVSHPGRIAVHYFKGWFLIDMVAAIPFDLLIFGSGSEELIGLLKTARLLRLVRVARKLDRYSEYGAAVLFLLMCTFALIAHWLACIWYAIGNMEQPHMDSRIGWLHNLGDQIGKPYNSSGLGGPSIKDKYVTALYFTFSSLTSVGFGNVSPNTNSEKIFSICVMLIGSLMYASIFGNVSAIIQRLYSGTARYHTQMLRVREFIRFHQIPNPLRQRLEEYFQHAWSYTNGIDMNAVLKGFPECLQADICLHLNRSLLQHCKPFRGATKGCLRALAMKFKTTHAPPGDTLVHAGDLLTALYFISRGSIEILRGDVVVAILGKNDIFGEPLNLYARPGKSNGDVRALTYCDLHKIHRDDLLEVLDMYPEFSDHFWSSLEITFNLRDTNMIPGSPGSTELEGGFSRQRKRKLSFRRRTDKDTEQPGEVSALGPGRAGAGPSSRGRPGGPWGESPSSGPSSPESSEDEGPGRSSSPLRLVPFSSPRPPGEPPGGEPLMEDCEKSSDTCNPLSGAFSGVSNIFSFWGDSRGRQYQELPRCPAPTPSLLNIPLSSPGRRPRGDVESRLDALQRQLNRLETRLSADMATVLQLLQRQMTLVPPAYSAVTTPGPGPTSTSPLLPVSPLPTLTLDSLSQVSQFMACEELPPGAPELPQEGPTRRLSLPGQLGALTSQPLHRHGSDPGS
- experimental details: Binding affinity to human ERG at 3.16 uM
observation type: inhibition at 3.16 µM

What value of inhibition at 3.16 µM has been reported for the following molecule? "COc1ccccc1C1CCN(Cc2nc3ccccc3n2C)CC1"
< 50%

* * *

- experimental details: Plasma clearance in rat at 1 mg/kg, iv
- Format: ADME, organism-based
- Set-up: dose 1 mg/kg, route intravenous
observation type: clearance (mL/min/kg)
// note: answer is a bare numeric in mL/min/kg

What value of clearance has been reported for the following compound? "Cn1c(CN2CCC(c3ccc(C(F)(F)F)cc3)CC2)nc2ncccc21"
5.4

What value of clearance has been reported for the following compound? "C[C@H]1CN(Cc2nc3ncccc3n2C)CC[C@H]1c1ccc(C(F)(F)F)cc1F"
7.5

* * *

- measured on: Metabotropic glutamate receptor 2 (Rattus norvegicus)
- Sequence (P31421 whole entry): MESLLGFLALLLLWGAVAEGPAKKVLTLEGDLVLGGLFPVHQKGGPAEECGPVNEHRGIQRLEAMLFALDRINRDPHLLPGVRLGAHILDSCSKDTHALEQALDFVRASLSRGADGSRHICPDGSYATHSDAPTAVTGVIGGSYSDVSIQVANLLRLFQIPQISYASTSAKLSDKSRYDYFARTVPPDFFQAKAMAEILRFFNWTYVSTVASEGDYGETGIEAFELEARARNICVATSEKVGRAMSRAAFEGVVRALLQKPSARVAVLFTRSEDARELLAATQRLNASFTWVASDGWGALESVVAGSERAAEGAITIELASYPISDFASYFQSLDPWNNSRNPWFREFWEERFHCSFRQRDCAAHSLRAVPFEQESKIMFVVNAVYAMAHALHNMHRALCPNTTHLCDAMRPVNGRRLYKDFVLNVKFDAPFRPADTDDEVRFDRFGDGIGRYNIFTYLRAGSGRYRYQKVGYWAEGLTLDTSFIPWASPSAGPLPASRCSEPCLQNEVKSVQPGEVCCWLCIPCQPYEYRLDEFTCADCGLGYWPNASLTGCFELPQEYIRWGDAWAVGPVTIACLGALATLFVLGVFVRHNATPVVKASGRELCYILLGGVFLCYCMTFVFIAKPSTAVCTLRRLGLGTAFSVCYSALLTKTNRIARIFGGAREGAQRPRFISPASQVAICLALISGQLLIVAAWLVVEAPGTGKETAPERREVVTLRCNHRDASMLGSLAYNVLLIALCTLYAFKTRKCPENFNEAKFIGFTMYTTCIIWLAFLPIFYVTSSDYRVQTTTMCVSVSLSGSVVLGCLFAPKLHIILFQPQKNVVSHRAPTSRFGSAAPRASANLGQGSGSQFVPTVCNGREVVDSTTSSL
- experimental details: Positive allosteric modulation of rat mGluR2 expressed in HEK293 cells co-expressing Galpha15 G protein assessed as increase in glutamate-induced intracellular calcium release by FLIPR assay
Listed below: EC50 values for each entry.
Report field: quantity (unit follows the number).

>>> recorded_value("COc1cc(C(F)(F)F)ccc1C1CCN(Cc2nc3ncccc3n2C)CC1")
"13 nM"

What value of EC50 has been reported for the following molecule? "Cn1c(CN2CCC(c3ccccc3Cl)CC2)nc2ccccc21"
144 nM

What value of EC50 has been reported for the following molecule? "COc1ccccc1C1CCN(Cc2nc3ccccc3n2C)CC1"
87 nM

What value of EC50 has been reported for the following molecule? "C[C@H]1CN(Cc2nc3ncccc3n2C)CC[C@H]1c1ccc(C(F)(F)F)cc1"
33 nM

What value of EC50 has been reported for the following molecule? "Cn1c(CN2CCC(c3ccccc3F)CC2)nc2ccccc21"
22 nM

What value of EC50 has been reported for the following molecule? "C[C@H]1CN(Cc2nc3ncccc3n2C)CC[C@H]1c1ccc(Cl)cc1F"
28 nM

* * *

- measured on: D(2) dopamine receptor (Rattus norvegicus)
- Sequence (P61169 whole entry): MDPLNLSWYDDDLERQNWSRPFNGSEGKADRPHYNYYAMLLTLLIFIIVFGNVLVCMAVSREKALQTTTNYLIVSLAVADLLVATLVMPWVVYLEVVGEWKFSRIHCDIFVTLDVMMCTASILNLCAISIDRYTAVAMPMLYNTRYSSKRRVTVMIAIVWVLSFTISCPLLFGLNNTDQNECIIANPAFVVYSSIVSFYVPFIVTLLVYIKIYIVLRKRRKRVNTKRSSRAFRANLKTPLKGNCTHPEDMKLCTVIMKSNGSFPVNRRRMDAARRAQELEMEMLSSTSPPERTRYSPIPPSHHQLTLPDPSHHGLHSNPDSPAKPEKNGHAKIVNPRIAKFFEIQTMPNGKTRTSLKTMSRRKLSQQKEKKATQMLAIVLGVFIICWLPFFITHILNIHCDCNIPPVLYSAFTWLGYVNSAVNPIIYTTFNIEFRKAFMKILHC
- experimental details: Displacement of [3H]spiperone from dopamine D2 receptor in rat corpus striatum by beta plate scintillation counting
- Assay type: tissue-based
observation type: Ki (µM)
// note: answer is a bare numeric in µM

Use the examples below as a reference point.
>>> recorded_value("COc1ccccc1C1CCN(Cc2nc3ccccc3n2C)CC1")
0.426
>>> recorded_value("Cn1c(CN2[C@@H]3CC[C@H]2CC(c2ccc(C(F)(F)F)cc2)C3)nc2ncccc21 (stereo partly drawn)")
0.355
>>> recorded_value("C[C@@H]1C[C@H](c2ccc(C(F)(F)F)cc2)CCN1Cc1nc2ncccc2n1C")
0.589

What value of Ki has been reported for the following compound? "COc1cc(C(F)(F)F)ccc1C1CCN(Cc2nc3ncccc3n2C)CC1"
2.43

* * *

- measured on: UniProt:Q13255
- Sequence (Q13255 19-1194 limits assumed): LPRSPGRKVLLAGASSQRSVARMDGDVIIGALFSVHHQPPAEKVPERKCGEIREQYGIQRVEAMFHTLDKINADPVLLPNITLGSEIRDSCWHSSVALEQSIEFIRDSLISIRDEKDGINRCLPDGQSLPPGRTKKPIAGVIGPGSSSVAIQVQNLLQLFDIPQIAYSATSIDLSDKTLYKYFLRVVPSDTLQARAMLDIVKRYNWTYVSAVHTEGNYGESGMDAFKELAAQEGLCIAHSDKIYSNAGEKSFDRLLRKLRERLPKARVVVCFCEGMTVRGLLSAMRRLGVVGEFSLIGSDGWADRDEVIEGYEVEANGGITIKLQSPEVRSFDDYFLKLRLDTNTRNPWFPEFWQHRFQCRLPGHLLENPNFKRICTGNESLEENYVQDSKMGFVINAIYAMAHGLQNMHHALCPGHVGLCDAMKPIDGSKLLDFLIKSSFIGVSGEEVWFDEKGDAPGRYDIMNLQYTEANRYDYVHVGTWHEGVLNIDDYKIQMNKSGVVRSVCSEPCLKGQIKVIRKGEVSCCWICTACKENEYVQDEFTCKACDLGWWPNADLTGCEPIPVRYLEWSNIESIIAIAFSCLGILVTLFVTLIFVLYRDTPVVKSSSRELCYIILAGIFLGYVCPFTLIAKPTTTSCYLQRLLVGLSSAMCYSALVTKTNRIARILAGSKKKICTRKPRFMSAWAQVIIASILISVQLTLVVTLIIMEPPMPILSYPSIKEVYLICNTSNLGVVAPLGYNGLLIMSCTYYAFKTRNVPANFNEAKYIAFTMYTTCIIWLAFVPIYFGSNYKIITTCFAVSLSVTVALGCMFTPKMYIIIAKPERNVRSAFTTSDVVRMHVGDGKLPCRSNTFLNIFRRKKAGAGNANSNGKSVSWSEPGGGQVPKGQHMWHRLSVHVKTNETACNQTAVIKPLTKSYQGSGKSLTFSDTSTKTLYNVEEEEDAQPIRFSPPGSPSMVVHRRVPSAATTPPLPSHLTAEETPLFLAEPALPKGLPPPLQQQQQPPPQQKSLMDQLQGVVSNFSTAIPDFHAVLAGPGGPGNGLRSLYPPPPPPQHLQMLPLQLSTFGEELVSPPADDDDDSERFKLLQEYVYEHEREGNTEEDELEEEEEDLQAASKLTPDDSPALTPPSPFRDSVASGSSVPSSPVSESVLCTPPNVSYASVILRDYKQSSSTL
- experimental details: Antagonist activity at mGlu1 receptor at up to 10 uM
- Type: functional
The source made the active and inactive calls. The calls are words filed in the database; no cut-off is given here.
observation type: Activity

>>> recorded_value("COc1ccccc1C1CCN(Cc2nc3ccccc3n2C)CC1")
"inactive"
>>> recorded_value("C[C@H]1CN(Cc2nc3ncccc3n2C)CC[C@H]1c1ccc(C(F)(F)F)cc1F")
"inactive"
>>> recorded_value("COc1cc(C(F)(F)F)ccc1[C@@H]1CCN(Cc2nc3ncccc3n2C)C[C@@H]1C")
"inactive"
>>> recorded_value("C[C@H]1CN(Cc2nc3ncccc3n2C)CC[C@H]1c1ccc(OC(F)(F)F)cc1F")
"inactive"

* * *

- experimental details: Cmax in rat brain at 5 mg/kg, po
- Assay type: ADME, organism-based
- Parameters: dose 5 mg/kg, route oral
observation type: Cmax
Report field: quantity (unit follows the number).

What value of Cmax has been reported for the following molecule? "COc1cc(C(F)(F)F)ccc1[C@@H]1CCN(Cc2nc3ncccc3n2C)C[C@@H]1C"
1580 nM

* * *

- measured on: Metabotropic glutamate receptor 5 (Homo sapiens)
- experimental details: Positive allosteric modulation of mGlu5 receptor at up to 10 uM
Active and inactive are the calls of the source. No cut-off for these calls is given here.
observation type: Activity

>>> recorded_value("C[C@H]1CN(Cc2nc3ncccc3n2C)CC[C@H]1c1ccc(OC(F)(F)F)cc1F")
"inactive"
>>> recorded_value("C[C@H]1CN(Cc2nc3ncccc3n2C)CC[C@H]1c1ccc(C(F)(F)F)cc1F")
"inactive"
>>> recorded_value("COc1ccccc1C1CCN(Cc2nc3ccccc3n2C)CC1")
"inactive"
>>> recorded_value("COc1cc(C(F)(F)F)ccc1[C@@H]1CCN(Cc2nc3ncccc3n2C)C[C@@H]1C")
"inactive"

* * *

- System: MDCK
- experimental details: Efflux ratio of permeability from […] of MDR1 transfected MDCK cells at 1 uM
- Format: ADME, cell-based, Canis lupus familiaris
- recorded conditions: dog
Listed below: Ratio values for each entry.
Lab note: record the figure alone, no unit after it.

>>> recorded_value("C[C@H]1CN(Cc2nc3ncccc3n2C)CC[C@H]1c1ccc(C(F)(F)F)cc1F")
1.7
>>> recorded_value("COc1cc(C(F)(F)F)ccc1[C@@H]1CCN(Cc2nc3ncccc3n2C)C[C@@H]1C")
1.5
>>> recorded_value("COc1ccccc1C1CCN(Cc2nc3ccccc3n2C)CC1")
1.28

Continue with the next compound.
What value of Ratio has been reported for the following compound? "Cn1c(CN2CCC(c3ccc(C(F)(F)F)cc3)CC2)nc2ncccc21"
1.4

* * *

- experimental details: Ratio of drug level in brain to plasma in mouse at 10 mg/kg, sc after 60 mins
- Type: ADME, organism-based
- Set-up: dose 10 mg/kg, route subcutaneous
observation type: Kp at 1 h
Lab note: record the figure alone, no unit after it.

>>> recorded_value("C[C@H]1CN(Cc2nc3ncccc3n2C)CC[C@H]1c1ccc(OC(F)(F)F)cc1F")
1.2
>>> recorded_value("COc1cc(C(F)(F)F)ccc1[C@@H]1CCN(Cc2nc3ncccc3n2C)C[C@@H]1C")
1.7

Continue with the next compound.
What value of Kp at 1 h has been reported for the following compound? "C[C@H]1CN(Cc2nc3ncccc3n2C)CC[C@H]1c1ccc(C(F)(F)F)cc1F"
1.9

* * *

- measured on: D(2) dopamine receptor (Homo sapiens, UniProt P14416)
- Sequence (P14416 whole entry): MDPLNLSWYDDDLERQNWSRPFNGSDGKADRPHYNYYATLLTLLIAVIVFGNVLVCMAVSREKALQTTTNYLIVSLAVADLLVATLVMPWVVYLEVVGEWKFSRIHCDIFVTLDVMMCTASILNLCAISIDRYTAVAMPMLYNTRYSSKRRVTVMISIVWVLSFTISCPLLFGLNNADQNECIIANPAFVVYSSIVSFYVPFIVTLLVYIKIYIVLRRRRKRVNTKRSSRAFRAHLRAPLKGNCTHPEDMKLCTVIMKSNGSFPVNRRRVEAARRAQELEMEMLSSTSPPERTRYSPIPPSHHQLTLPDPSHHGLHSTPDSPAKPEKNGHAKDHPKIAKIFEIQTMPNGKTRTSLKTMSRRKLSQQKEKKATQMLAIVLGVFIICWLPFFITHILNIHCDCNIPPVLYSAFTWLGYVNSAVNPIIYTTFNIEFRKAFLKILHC
- experimental details: Antagonist activity at human dopamine D2 receptor expressed in CHO cells assessed as inhibition of quinpirole-induced effect
observation type: pEC50
Note on pEC50: it is the negative log10 of concentration, concentration in mol/L.

What value of pEC50 has been reported for the following molecule? "COc1ccccc1C1CCN(Cc2nc3ccccc3n2C)CC1"
6.02

* * *

- measured on: UniProtKB P61169
- experimental details: Displacement of [3H]spiperone from dopamine D2 receptor in rat corpus striatum by beta plate scintillation counting
pKi: −log10 of the molar value.
Answer f if pKi is under 6, and t if it is 6 or more.

>>> class("Cn1c(CN2CCC(c3ccc(F)cc3)CC2)nc2ccccc21")
"t"
>>> class("C[C@@H]1CN(Cc2nc3ncccc3n2C)CC[C@@H]1c1ccc(C(F)(F)F)cc1")
"f"
>>> class("Cn1c(CN2CCC(c3ccc(C(F)(F)F)cc3)CC2)nc2ncccc21")
"t"
>>> class("C[C@H]1CN(Cc2nc3ncccc3n2C)CC[C@H]1c1ccc(C(F)(F)F)cc1")
"f"
>>> class("C[C@H]1CN(Cc2nc3ncccc3n2C)CC[C@H]1c1ccc(C(F)(F)F)cc1F")
"f"
>>> class("C[C@H]1CN(Cc2nc3ncccc3n2C)CC[C@H]1c1ccc(Cl)cc1F")
"f"
>>> class("Cn1c(CN2CCC(c3ccc(C(F)(F)F)cc3F)CC2)nc2ncccc21")
"f"

Now look at this entry.
Check the entry "Cn1c(CN2CCC(c3ccc(C(F)(F)F)cc3)CC2)nc2ccccc21" : does pKi equal or exceed 6?
t

* * *

- experimental details: Ratio of drug level in brain to plasma in rat at 3.2 mg/kg, sc after 60 mins
- Format: ADME, organism-based
- Parameters: dose 3.2 mg/kg, route subcutaneous
Listed below: Kp at 1 h values for each entry.
Lab note: record the figure alone, no unit after it.

Use the examples below as a reference point.
>>> recorded_value("C[C@H]1CN(Cc2nc3ncccc3n2C)CC[C@H]1c1ccc(OC(F)(F)F)cc1F")
4
>>> recorded_value("Cn1c(CN2CCC(c3ccc(C(F)(F)F)cc3)CC2)nc2ncccc21")
5
>>> recorded_value("COc1cc(C(F)(F)F)ccc1[C@@H]1CCN(Cc2nc3ncccc3n2C)C[C@@H]1C")
8

Continue with the next compound.
What value of Kp at 1 h has been reported for the following compound? "C[C@H]1CN(Cc2nc3ncccc3n2C)CC[C@H]1c1ccc(C(F)(F)F)cc1F"
7

* * *

Listed below: Cmax values for each entry.
- experimental details: Cmax in rat brain at 10 mg/kg, po
- Assay type: ADME, organism-based
- Parameters: dose 10 mg/kg, route oral
// note: answer is a bare numeric in µM

>>> recorded_value("Cn1c(CN2CCC(c3ccc(C(F)(F)F)cc3)CC2)nc2ncccc21")
5.21

Continue with the next molecule.
What value of Cmax has been reported for the following molecule? "C[C@H]1CN(Cc2nc3ncccc3n2C)CC[C@H]1c1ccc(C(F)(F)F)cc1F"
3.12
